- System: skin
- measurement.notes: Affymetrix microarray of skin, DBP-4 hr and analogs vs. untreated; gene selection by log-2 fold change, Wilcoxon, Kendall tau (Tables 8, 9)
- Assay type: in vivo, mouse
- stated.conditions: gene #96 of Table 8
recorded.endpoint: Log2 Expression Level
Respond with the number and no other words.

*Q* Read off the recorded Log2 Expression Level for COC(=O)c1ccccc1C(=O)OC [DMP, dimethylphthalate]
*A* 7.21

*Q* Read off the recorded Log2 Expression Level for CCCCOC(=O)c1ccccc1C(=O)OCCCC [DBP, dibutylphthalate]
*A* 8.79

*Q* Read off the recorded Log2 Expression Level for CCN(CC)C(=O)c1cccc(C)c1 [DEET, N,N-diethyl-toluamide]
*A* 9.02

*Q* Read off the recorded Log2 Expression Level for CC(C)=O [Acetone]
*A* 6.62

*Q* Read off the recorded Log2 Expression Level for CCOC(=O)c1ccccc1C(=O)OCC [DEP, diethylphthalate]
*A* 6.84

---

For each record, write down the corresponding Log2 Expression Level.
- System: skin
- measurement.notes: Affymetrix microarray of skin, DBP-4 hr and analogs vs. untreated; gene selection by log-2 fold change, Wilcoxon, Kendall tau (Tables 8, 9)
- Type: in vivo, mouse
- stated.conditions: gene #38 of Table 8

*Q* Lab note: skin assay, enter Log2 Expression Level for CC(C)=O [Acetone] here
*A* 8.73

*Q* Lab note: skin assay, enter Log2 Expression Level for COC(=O)c1ccccc1C(=O)OC [DMP, dimethylphthalate] here
*A* 8.83

*Q* Lab note: skin assay, enter Log2 Expression Level for CCCCOC(=O)c1ccccc1C(=O)OCCCC [DBP, dibutylphthalate] here
*A* 9.82

*Q* Lab note: skin assay, enter Log2 Expression Level for CCN(CC)C(=O)c1cccc(C)c1 [DEET, N,N-diethyl-toluamide] here
*A* 9.66

*Q* Lab note: skin assay, enter Log2 Expression Level for CCOC(=O)c1ccccc1C(=O)OCC [DEP, diethylphthalate] here
*A* 8.98

---

- Test system: skin
- measurement.notes: Affymetrix microarray of skin, DBP-4 hr and analogs vs. untreated; gene selection by log-2 fold change, Wilcoxon, Kendall tau (Tables 8, 9)
- Type: in vivo, mouse
- stated.conditions: gene #24 of Table 8
recorded.endpoint: Log2 Expression Level
Respond with the number and no other words.

*Q* Read off the recorded Log2 Expression Level for CCOC(=O)c1ccccc1C(=O)OCC [DEP, diethylphthalate]
*A* 7.92

*Q* Read off the recorded Log2 Expression Level for CCCCOC(=O)c1ccccc1C(=O)OCCCC [DBP, dibutylphthalate]
*A* 8.10

*Q* Read off the recorded Log2 Expression Level for CC(C)=O [Acetone]
*A* 6.97

*Q* Read off the recorded Log2 Expression Level for CCN(CC)C(=O)c1cccc(C)c1 [DEET, N,N-diethyl-toluamide]
*A* 8.21

*Q* Read off the recorded Log2 Expression Level for COC(=O)c1ccccc1C(=O)OC [DMP, dimethylphthalate]
*A* 7.33

---

- System: skin
- measurement.notes: Affymetrix microarray of skin, DBP-4 hr and analogs vs. untreated; gene selection by log-2 fold change, Wilcoxon, Kendall tau (Tables 8, 9)
- Assay type: in vivo, mouse
- stated.conditions: gene #48 of Table 8
For each record, write down the corresponding Log2 Expression Level.
Respond with the number and no other words.

*Q* Read off the recorded Log2 Expression Level for CCOC(=O)c1ccccc1C(=O)OCC [DEP, diethylphthalate]
*A* 8.45

*Q* Read off the recorded Log2 Expression Level for CCCCOC(=O)c1ccccc1C(=O)OCCCC [DBP, dibutylphthalate]
*A* 8.96

*Q* Read off the recorded Log2 Expression Level for CCN(CC)C(=O)c1cccc(C)c1 [DEET, N,N-diethyl-toluamide]
*A* 9.23

*Q* Read off the recorded Log2 Expression Level for COC(=O)c1ccccc1C(=O)OC [DMP, dimethylphthalate]
*A* 8.08

*Q* Read off the recorded Log2 Expression Level for CC(C)=O
*A* 7.47

---

- System: skin
- measurement.notes: Affymetrix microarray of skin, DBP-4 hr and analogs vs. untreated; gene selection by log-2 fold change, Wilcoxon, Kendall tau (Tables 8, 9)
- Type: in vivo, mouse
- stated.conditions: gene #58 of Table 8
recorded.endpoint: Log2 Expression Level

*Q* Read off the recorded Log2 Expression Level for COC(=O)c1ccccc1C(=O)OC [DMP, dimethylphthalate]
*A* 8.81

*Q* Read off the recorded Log2 Expression Level for CCOC(=O)c1ccccc1C(=O)OCC [DEP, diethylphthalate]
*A* 8.74

*Q* Read off the recorded Log2 Expression Level for CCN(CC)C(=O)c1cccc(C)c1 [DEET, N,N-diethyl-toluamide]
*A* 9.46

*Q* Read off the recorded Log2 Expression Level for CCCCOC(=O)c1ccccc1C(=O)OCCCC [DBP, dibutylphthalate]
*A* 9.48

*Q* Read off the recorded Log2 Expression Level for CC(C)=O
*A* 8.50

---

- Tested on: skin
- measurement.notes: Affymetrix microarray of skin, DBP-4 hr and analogs vs. untreated; gene selection by log-2 fold change, Wilcoxon, Kendall tau (Tables 8, 9)
- Assay type: in vivo, mouse
- stated.conditions: gene #64 of Table 8
For each record, write down the corresponding Log2 Expression Level.
Respond with the number and no other words.

*Q* Read off the recorded Log2 Expression Level for CCOC(=O)c1ccccc1C(=O)OCC [DEP, diethylphthalate]
*A* 11.04

*Q* Read off the recorded Log2 Expression Level for CCN(CC)C(=O)c1cccc(C)c1 [DEET, N,N-diethyl-toluamide]
*A* 11.40

*Q* Read off the recorded Log2 Expression Level for COC(=O)c1ccccc1C(=O)OC [DMP, dimethylphthalate]
*A* 10.44

*Q* Read off the recorded Log2 Expression Level for CC(C)=O
*A* 10.06

*Q* Read off the recorded Log2 Expression Level for CCCCOC(=O)c1ccccc1C(=O)OCCCC [DBP, dibutylphthalate]
*A* 11.47

---

For each record, write down the corresponding Log2 Expression Level.
- Test system: skin
- measurement.notes: Affymetrix microarray of skin, DBP-4 hr and analogs vs. untreated; gene selection by log-2 fold change, Wilcoxon, Kendall tau (Tables 8, 9)
- Type: in vivo, mouse
- stated.conditions: gene #61 of Table 8
Respond with the number and no other words.

*Q* Read off the recorded Log2 Expression Level for CCOC(=O)c1ccccc1C(=O)OCC [DEP, diethylphthalate]
*A* 12.58

*Q* Read off the recorded Log2 Expression Level for CCCCOC(=O)c1ccccc1C(=O)OCCCC [DBP, dibutylphthalate]
*A* 12.15

*Q* Read off the recorded Log2 Expression Level for CCN(CC)C(=O)c1cccc(C)c1 [DEET, N,N-diethyl-toluamide]
*A* 12.16

*Q* Read off the recorded Log2 Expression Level for CC(C)=O
*A* 11.19

*Q* Read off the recorded Log2 Expression Level for COC(=O)c1ccccc1C(=O)OC [DMP, dimethylphthalate]
*A* 11.13

---

For each record, write down the corresponding Log2 Expression Level.
- System: skin
- measurement.notes: Affymetrix microarray of skin, DBP-4 hr and analogs vs. untreated; gene selection by log-2 fold change, Wilcoxon, Kendall tau (Tables 8, 9)
- Type: in vivo, mouse
- stated.conditions: gene #82 of Table 8
Respond with the number and no other words.

*Q* Lab note: skin assay, enter Log2 Expression Level for COC(=O)c1ccccc1C(=O)OC [DMP, dimethylphthalate] here
*A* 4.77

*Q* Lab note: skin assay, enter Log2 Expression Level for CC(C)=O here
*A* 5.03

*Q* Lab note: skin assay, enter Log2 Expression Level for CCN(CC)C(=O)c1cccc(C)c1 [DEET, N,N-diethyl-toluamide] here
*A* 6.28

*Q* Lab note: skin assay, enter Log2 Expression Level for CCCCOC(=O)c1ccccc1C(=O)OCCCC [DBP, dibutylphthalate] here
*A* 6.28

*Q* Lab note: skin assay, enter Log2 Expression Level for CCOC(=O)c1ccccc1C(=O)OCC [DEP, diethylphthalate] here
*A* 4.90

---

For each record, write down the corresponding Log2 Expression Level.
- Test system: skin
- measurement.notes: Affymetrix microarray of skin, DBP-4 hr and analogs vs. untreated; gene selection by log-2 fold change, Wilcoxon, Kendall tau (Tables 8, 9)
- Format: in vivo, mouse
- stated.conditions: gene #94 of Table 8
Respond with the number and no other words.

*Q* Read off the recorded Log2 Expression Level for COC(=O)c1ccccc1C(=O)OC [DMP, dimethylphthalate]
*A* 7.22

*Q* Read off the recorded Log2 Expression Level for CCN(CC)C(=O)c1cccc(C)c1 [DEET, N,N-diethyl-toluamide]
*A* 9.19

*Q* Read off the recorded Log2 Expression Level for CCCCOC(=O)c1ccccc1C(=O)OCCCC [DBP, dibutylphthalate]
*A* 8.85

*Q* Read off the recorded Log2 Expression Level for CCOC(=O)c1ccccc1C(=O)OCC [DEP, diethylphthalate]
*A* 7.83

*Q* Read off the recorded Log2 Expression Level for CC(C)=O [Acetone]
*A* 7.10

---

- System: skin
- measurement.notes: Affymetrix microarray of skin, DBP-4 hr and analogs vs. untreated; gene selection by log-2 fold change, Wilcoxon, Kendall tau (Tables 8, 9)
- Type: in vivo, mouse
- stated.conditions: gene #90 of Table 8
recorded.endpoint: Log2 Expression Level
Respond with the number and no other words.

*Q* Read off the recorded Log2 Expression Level for CCN(CC)C(=O)c1cccc(C)c1 [DEET, N,N-diethyl-toluamide]
*A* 11.13

*Q* Read off the recorded Log2 Expression Level for CCCCOC(=O)c1ccccc1C(=O)OCCCC [DBP, dibutylphthalate]
*A* 10.84

*Q* Read off the recorded Log2 Expression Level for CC(C)=O
*A* 9.45

*Q* Read off the recorded Log2 Expression Level for CCOC(=O)c1ccccc1C(=O)OCC [DEP, diethylphthalate]
*A* 10.08

*Q* Read off the recorded Log2 Expression Level for COC(=O)c1ccccc1C(=O)OC [DMP, dimethylphthalate]
*A* 9.55
